- SYSTEM_NAME: Cytochrome P450 1A2 (Homo sapiens) (UniProt P05177)
- Sequence (P05177 whole entry, looked up): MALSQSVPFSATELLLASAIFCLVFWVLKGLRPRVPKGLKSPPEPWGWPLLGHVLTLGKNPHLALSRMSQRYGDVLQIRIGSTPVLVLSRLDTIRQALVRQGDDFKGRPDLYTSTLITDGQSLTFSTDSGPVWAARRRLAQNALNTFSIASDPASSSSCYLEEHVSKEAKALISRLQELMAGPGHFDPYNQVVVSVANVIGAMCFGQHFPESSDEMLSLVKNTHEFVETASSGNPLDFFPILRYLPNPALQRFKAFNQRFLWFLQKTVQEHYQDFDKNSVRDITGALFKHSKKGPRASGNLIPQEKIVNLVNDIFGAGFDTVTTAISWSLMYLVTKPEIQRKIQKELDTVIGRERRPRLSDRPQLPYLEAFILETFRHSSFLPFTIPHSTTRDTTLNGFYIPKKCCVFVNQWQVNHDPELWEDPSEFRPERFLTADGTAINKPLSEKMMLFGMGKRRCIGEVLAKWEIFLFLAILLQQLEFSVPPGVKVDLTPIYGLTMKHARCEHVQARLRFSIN
- ASSAY: Cytochrome panel assay with activity outcomes
- CONDITIONS: recombinant CYP, pro-luciferin dealkylation, luminescence, p450-cyp1a2; series mostly up to 57.1 µM
Hit rate of the full screen: of about 16,000 compounds, about 5,700 (36%) were called active. Inconclusive results (about 24%) are left out. The call rests on the fitted dose curve; in most records, active means well fitted curve in the direction sought with a large enough effect; inconclusive means small, poorly fitted or top-dose-only effect, or effect the other way; inactive means no such curve, though single readings can be large or run the other way. This is one part of the list.
Outcome codes: active, inactive

COMPOUND | DISCRETE_LABEL
O=C(CSc1nc2ccccc2[nH]1)Nc1c(F)cccc1F | active
COc1cc(C2C(C#N)=C(N)N(c3sc4c(c3C#N)CCCC4)C3=C2C(=O)CC(C)(C)C3)cc(OC)c1OC (stereo unspecified) | inactive
O=C(CCN1C(=O)C2C3C=CC(C3)C2C1=O)Nc1c(F)cccc1F (stereo unspecified) | inactive
COc1ccc(N(CC(=O)N/N=C/c2cccs2)S(=O)(=O)c2ccc(OC)c(OC)c2)cc1 | inactive
c1ccc(N2CCN(CCCOc3ccc4c(c3)OCO4)CC2)cc1 | active
Cc1cc(OC(=O)c2ccc(Cl)cc2)cc(=O)n1C | active
Cc1ccc(NC(=S)N2CCN(C3CCCCC3)CC2)cc1 | inactive
C=C/C(C)=C/[C@]1(C)SC(=O)C(C)=C1O | inactive
O=C(Nc1ccc(Cl)cc1)NC1CCCCC1 | inactive
Cc1ccc(C(=O)c2ccc(CC(=O)O)n2C)cc1 | inactive
CC(=O)c1c(C(C)=O)c(C)n(NC(=O)c2ccccc2Cl)c1C | inactive
